assay: patients with anti-drug antibodies; higher = more immunogenic
Result Type: patients with anti-drug antibodies (%)
Value expressed in %; do not type the unit.

The following proteins have reported results that may help.
{"Protein": "unnamed (protein) chain 1: QVQLVQPGAEVKKPGTSVKLSCKASGYTFTTYWMHWVRQAPGQGLEWIGEINPTNGHTNYNQKFQGRATLTVDKSTSTAYMELSSLRSEDTAVYYCARNYVGSIFDYWGQGTLLTVSS chain 2: DIVMTQSPDSLAMSLGERVTLNCKASENVVSYVSWYQQKPGQSPKLLIYGASNRESGVPDRFSGSGSATDFTLTISSVQAEDVADYHCGQSYNYPYTFGQGTKLEIK", "patients with anti-drug antibodies / %": 0}
{"Protein": "unnamed (protein) chain 1: EVQLLESGGGLVQPGGSLRLSCAASGFTFSSYAMSWVRQAPGKGLEWVSTISSGGSYTSYPDSVKGRFTISRDNSKNTLYLQMNSLRAEDTAVYYCAKQDYAMNYWGQGTLVTVSS chain 2: DIQMTQSPSSLSASVGDRVTITCKASQDVSTAVAWYQQKPGKAPKLLIYSASYRYTGVPSRFSGSGSGTDFTLTISSLQPEDFATYYCQQHYSTPWTFGGGTKVEIK", "patients with anti-drug antibodies / %": 9.4}

stdin: Fill in reported patients with anti-drug antibodies for this entry: unnamed (protein) chain 1: QVQLVQSGAEVKKPGSSVKVSCKASGYTFTDQTIHWMRQAPGQGLEWIGYIYPRDDSPKYNENFKGKVTITADKSTSTAYMELSSLRSEDTAVYYCAIPDRSGYAWFIYWGQGTLVTVSS chain 2: DIQMTQSPSSLSASVGDRVTITCKASRDVAIAVAWYQQKPGKVPKLLIYWASTRHTGVPSRFSGSGSRTDFTLTISSLQPEDVADYFCHQYSSYPFTFGSGTKLEIK
stdout: 24
